Hello, the source for this data is ChEMBL document CHEMBL1154707, in case you need it.

# Ratio IC50 annotations
test: Selectivity for FLAG-tagged human mTOR over PI3Kalpha
measurement_kind: Ratio IC50

[[record]]
compound = "CCOC(=O)N1CCC(n2ncc3c(N4CCOC[C@H]4C)nc(-c4ccc(NC(=O)NCCF)cc4)nc32)CC1"
obs_value = 3670

[[record]]
compound = "CNC(=O)Nc1ccc(-c2nc(N3C4CCC3COC4)c3cnn(CC(F)(F)F)c3n2)cc1"
obs_value = 2420

[[record]]
compound = "O=C(Nc1ccc(-c2nc(N3CCOCC3)c3cnn(CC(F)(F)F)c3n2)cc1)Nc1cccnc1"
obs_value = 43

[[record]]
compound = "CNC(=O)Nc1ccc(-c2nc(N3CC4CCC(C3)O4)c3cnn(C4CCN(Cc5cccnc5)CC4)c3n2)cc1"
obs_value = 1410

[[record]]
compound = "COC(=O)N1CCC(n2ncc3c(N4CCOC(C)C4)nc(-c4ccc(NC(=O)Nc5cccnc5)cc4)nc32)CC1 (stereo not drawn)"
obs_value = 135

[[record]]
compound = "CNC(=O)Nc1ccc(-c2nc(N3CC4CCC(C3)O4)c3cnn(C4CCN(C(=O)OC)CC4)c3n2)cc1"
obs_value = 8010

[[record]]
compound = "CNC(=O)Nc1ccc(-c2nc(N3C4CCC3COC4)c3cnn(C4CCN(C(=O)OC)CC4)c3n2)cc1"
obs_value = 19400

[[record]]
compound = "COC(=O)N1CCC(n2ncc3c(N4CC5CCC(C4)O5)nc(-c4ccc(NC(=O)Nc5cccnc5)cc4)nc32)CC1"
obs_value = 5580


###

system: LNCaP; experiment: Growth inhibition of human LNCAP cells after 3 days by MTS method; format: functional, cell-based; settings: 72 h
pIC50: −log10 of the molar value.
measurement_kind: pIC50

[[record]]
entry_smiles = "CCNC(=O)Nc1ccc(-c2nc(N3CC4CCC(C3)O4)c3cnn(C4CCN(C(=O)OC)CC4)c3n2)cc1"
subject_of_test = "LNCaP"
obs_value = 8.05


###

assay: Selectivity for FLAG-tagged human mTOR over PI3Kalpha
Hi! Just check whether Ratio IC50 is below 2000. Below gives true, equal or above gives false.

[[record]]
compound = "COC(=O)N1CCC(n2ncc3c(N4CC5CCC(C4)O5)nc(-c4ccc(NC(=O)NC5CC5)cc4)nc32)CC1"
group = "false"

[[record]]
compound = "O=C(NCCF)Nc1ccc(-c2nc(N3CCOCC3)c3cnn(CC(F)(F)F)c3n2)cc1"
group = "true"

[[record]]
compound = "O=C(Nc1ccc(-c2nc(N3C[C@@H]4C[C@H]3CO4)c3cnn(CC(F)(F)F)c3n2)cc1)NC1CC1"
group = "false"

[[record]]
compound = "CNC(=O)Nc1ccc(-c2nc(N3CC4CCC(C3)O4)c3cnn(CC(F)(F)F)c3n2)cc1"
group = "false"

[[record]]
compound = "CCOC(=O)N1CCC(n2ncc3c(N4CCOC[C@@H]4C)nc(-c4ccc(NC(=O)NCCF)cc4)nc32)CC1"
group = "true"

[[record]]
compound = "CCOC(=O)N1CCC(n2ncc3c(N4CCOC[C@@H]4C)nc(-c4ccc(NC(=O)Nc5ccncc5)cc4)nc32)CC1"
group = "true"

[[record]]
compound = "O=C(Nc1ccc(-c2nc(N3CC4CCC(C3)O4)c3cnn(CC(F)(F)F)c3n2)cc1)Nc1cccnc1"
group = "true"

[[record]]
compound = "CCNC(=O)Nc1ccc(-c2nc(N3CCOC[C@@H]3C)c3cnn(C4CCN(C(=O)OCC)CC4)c3n2)cc1"
group = "true"

[[record]]
compound = "CCNC(=O)Nc1ccc(-c2nc(N3CCOC(C)C3)c3cnn(C4CCN(C(=O)OC)CC4)c3n2)cc1 (stereo not given)"
group = "true"

[[record]]
compound = "COC(=O)N1CCC(n2ncc3c(N4CCOCC4)nc(-c4ccc(NC(=O)Nc5cccnc5)cc4)nc32)CC1"
group = "true"

[[record]]
compound = "CNC(=O)Nc1ccc(-c2nc(N3CCOCC3)c3cnn(CC(F)(F)F)c3n2)cc1"
group = "true"

[[record]]
compound = "CCNC(=O)Nc1ccc(-c2nc(N3CCOC[C@H]3C)c3cnn(C4CCN(C(=O)OCC)CC4)c3n2)cc1"
group = "false"

[[record]]
compound = "O=C(Nc1ccc(-c2nc(N3C[C@@H]4C[C@H]3CO4)c3cnn(CC(F)(F)F)c3n2)cc1)Nc1cccnc1"
group = "true"

[[record]]
compound = "CCNC(=O)Nc1ccc(-c2nc(N3CCOCC3)c3cnn(C4CCN(C(=O)OCC)CC4)c3n2)cc1"
group = "false"

[[record]]
compound = "CNC(=O)Nc1ccc(-c2nc(N3CCOC(C)C3)c3cnn(C4CCN(C(=O)OC)CC4)c3n2)cc1 (stereo not given)"
group = "true"

[[record]]
compound = "CNC(=O)Nc1ccc(-c2nc(N3C[C@@H]4C[C@H]3CO4)c3cnn(CC(F)(F)F)c3n2)cc1"
group = "true"

[[record]]
compound = "O=C(Nc1ccc(-c2nc(N3C[C@H]4C[C@@H]3CO4)c3cnn(CC(F)(F)F)c3n2)cc1)Nc1cccnc1"
group = "true"

[[record]]
compound = "O=C(Nc1ccc(-c2nc(N3C[C@H]4C[C@@H]3CO4)c3cnn(CC(F)(F)F)c3n2)cc1)NC1CC1"
group = "true"

[[record]]
compound = "CCNC(=O)Nc1ccc(-c2nc(N3CC4CCC(C3)O4)c3cnn(C4CCN(C(=O)OC)CC4)c3n2)cc1"
group = "false"

[[record]]
compound = "O=C(Nc1ccc(-c2nc(N3C4CCC3COC4)c3cnn(CC(F)(F)F)c3n2)cc1)Nc1cccnc1"
group = "true"

[[record]]
compound = "CCNC(=O)Nc1ccc(-c2nc(N3C4CCC3COC4)c3cnn(C4CCN(C(=O)OC)CC4)c3n2)cc1"
group = "false"

[[record]]
compound = "CCOC(=O)N1CCC(n2ncc3c(N4CCOC[C@H]4C)nc(-c4ccc(NC(=O)Nc5ccncc5)cc4)nc32)CC1"
group = "true"

[[record]]
compound = "O=C(NCCF)Nc1ccc(-c2nc(N3CC4CCC(C3)O4)c3cnn(CC(F)(F)F)c3n2)cc1"
group = "false"

[[record]]
compound = "COC(=O)N1CCC(n2ncc3c(N4C5CCC4COC5)nc(-c4ccc(NC(=O)Nc5cccnc5)cc4)nc32)CC1"
group = "false"

[[record]]
compound = "CNC(=O)Nc1ccc(-c2nc(N3C[C@H]4C[C@@H]3CO4)c3cnn(CC(F)(F)F)c3n2)cc1"
group = "true"


###

target: Serine/threonine-protein kinase mTOR (Homo sapiens); assay: Inhibition of FLAG-tagged human mTOR by DELFIA method
pIC50: −log10 of the molar value.
measurement_kind: pIC50

[[record]]
molecule = "COC(=O)N1CCC(n2ncc3c(N4CC5CCC(C4)O5)nc(-c4ccc(NC(=O)Nc5cccnc5)cc4)nc32)CC1"
measurement_kind = "pIC50"
obs_value = 9.96

[[record]]
molecule = "CCOC(=O)N1CCC(n2ncc3c(N4CCOC[C@@H]4C)nc(-c4ccc(NC(=O)NCCF)cc4)nc32)CC1"
measurement_kind = "pIC50"
obs_value = 8.74

[[record]]
molecule = "CNC(=O)Nc1ccc(-c2nc(N3CC4CCC(C3)O4)c3cnn(CC(F)(F)F)c3n2)cc1"
measurement_kind = "pIC50"
obs_value = 9.30

[[record]]
molecule = "O=C(NCCF)Nc1ccc(-c2nc(N3CC4CCC(C3)O4)c3cnn(CC(F)(F)F)c3n2)cc1"
measurement_kind = "pIC50"
obs_value = 9.64

[[record]]
molecule = "COC(=O)N1CCC(n2ncc3c(N4CC5CCC(C4)O5)nc(-c4ccc(NC(=O)NC5CC5)cc4)nc32)CC1"
measurement_kind = "pIC50"
obs_value = 9.21

[[record]]
molecule = "CCOC(=O)N1CCC(n2ncc3c(N4CCOC[C@@H]4C)nc(-c4ccc(NC(=O)Nc5ccncc5)cc4)nc32)CC1"
measurement_kind = "pIC50"
obs_value = 9.24

[[record]]
molecule = "O=C(Nc1ccc(-c2nc(N3C[C@@H]4C[C@H]3CO4)c3cnn(CC(F)(F)F)c3n2)cc1)Nc1cccnc1"
measurement_kind = "pIC50"
obs_value = 8.92

[[record]]
molecule = "CNC(=O)Nc1ccc(-c2nc(N3CC4CCC(C3)O4)c3cnn(C4CCN(Cc5cccnc5)CC4)c3n2)cc1"
measurement_kind = "pIC50"
obs_value = 9.32

[[record]]
molecule = "CCNC(=O)Nc1ccc(-c2nc(N3CCOCC3)c3cnn(C4CCN(C(=O)OCC)CC4)c3n2)cc1"
measurement_kind = "pIC50"
obs_value = 9.77

[[record]]
molecule = "CCOC(=O)N1CCC(n2ncc3c(N4CCOC[C@H]4C)nc(-c4ccc(NC(=O)NCCF)cc4)nc32)CC1"
measurement_kind = "pIC50"
obs_value = 8.92

[[record]]
molecule = "O=C(Nc1ccc(-c2nc(N3CCOCC3)c3cnn(CC(F)(F)F)c3n2)cc1)Nc1cccnc1"
measurement_kind = "pIC50"
obs_value = 9.64

[[record]]
molecule = "CCNC(=O)Nc1ccc(-c2nc(N3CCOC[C@@H]3C)c3cnn(C4CCN(C(=O)OCC)CC4)c3n2)cc1"
measurement_kind = "pIC50"
obs_value = 8.74

[[record]]
molecule = "COC(=O)N1CCC(n2ncc3c(N4C5CCC4COC5)nc(-c4ccc(NC(=O)Nc5cccnc5)cc4)nc32)CC1"
measurement_kind = "pIC50"
obs_value = 9.80

[[record]]
molecule = "CNC(=O)Nc1ccc(-c2nc(N3CC4CCC(C3)O4)c3cnn(C4CCN(C(=O)OC)CC4)c3n2)cc1"
measurement_kind = "pIC50"
obs_value = 9.66

[[record]]
molecule = "O=C(Nc1ccc(-c2nc(N3C[C@@H]4C[C@H]3CO4)c3cnn(CC(F)(F)F)c3n2)cc1)NC1CC1"
measurement_kind = "pIC50"
obs_value = 8.72

[[record]]
molecule = "O=C(Nc1ccc(-c2nc(N3CC4CCC(C3)O4)c3cnn(CC(F)(F)F)c3n2)cc1)Nc1cccnc1"
measurement_kind = "pIC50"
obs_value = 9.72

[[record]]
molecule = "CCNC(=O)Nc1ccc(-c2nc(N3CC4CCC(C3)O4)c3cnn(C4CCN(C(=O)OC)CC4)c3n2)cc1"
measurement_kind = "pIC50"
obs_value = 9.70

[[record]]
molecule = "CNC(=O)Nc1ccc(-c2nc(N3CCOC(C)C3)c3cnn(C4CCN(C(=O)OC)CC4)c3n2)cc1 (centres undefined)"
measurement_kind = "pIC50"
obs_value = 8.64

[[record]]
molecule = "CCNC(=O)Nc1ccc(-c2nc(N3CCOC(C)C3)c3cnn(C4CCN(C(=O)OC)CC4)c3n2)cc1 (centres undefined)"
measurement_kind = "pIC50"
obs_value = 8.72

